Test system: transplanted paddy rice plant and Bulrush
MEASUREMENT_NOTES: Test Example 5: selectivity between transplanted paddy rice plant and weeds
Format: in vivo
MEASUREMENT_CONTEXT: (highest dosage with no phytotoxicity to paddy rice)/(lowest dosage with effective level 4 on Bulrush); rice 3000-100 g/ha, Bulrush 300-10 g/ha; 21 days
# maps each entry to its Selective Index

COMPOUND: CC(C)COC(=O)N(c1ccccc1CN1C(=O)OC(C)(C)C1C)S(=O)(=O)C(F)(F)F (centres unmarked) [1-95]
Selective Index: 30

COMPOUND: CC1(C)CN(Cc2ccccc2NS(=O)(=O)C(F)(F)F)C(=S)O1 [1-49]
Selective Index: 10

COMPOUND: CCCCC(CC)COC(=O)N(c1ccccc1CN1CC(C)(C)OC1=O)S(=O)(=O)C(F)(F)F (centres unmarked) [1-68]
Selective Index: 10

COMPOUND: CC(C)COC(=O)N(c1ccccc1CN1CC2(CCCCC2)OC1=O)S(=O)(=O)C(F)(F)F [1-46]
Selective Index: 10

COMPOUND: CC(C)COC(=O)N(c1ccccc1CN1CC(C)(C2CC2)OC1=O)S(=O)(=O)C(F)(F)F (centres unmarked) [1-72]
Selective Index: 10

COMPOUND: CCC1(C)CN(Cc2ccccc2N(C(=O)OCC(C)(C)C)S(=O)(=O)C(F)(F)F)C(=O)O1 (racemic) [1-105]
Selective Index: 10

COMPOUND: CCCOC(=O)N(c1ccccc1CN1CC(C)(C2CC2)OC1=O)S(=O)(=O)C(F)(F)F (racemic) [1-112]
Selective Index: 30

COMPOUND: CCOC(=O)N(c1ccccc1CN1CC(C)(C)OC1=O)S(=O)(=O)C(F)(F)F [1-80]
Selective Index: 30

====

Test system: transplanted paddy rice plant and Bulrush
MEASUREMENT_NOTES: Test Example 5: selectivity between transplanted paddy rice plant and weeds
Format: in vivo
MEASUREMENT_CONTEXT: (highest dosage with no phytotoxicity to paddy rice)/(lowest dosage with effective level 4 on Bulrush); rice 3000-100 g/ha, Bulrush 300-10 g/ha; 21 days
Each entry gets no if its Selective Index stays under 10, and yes if its Selective Index is 10 or above.

COMPOUND: CC1(C(F)(F)F)CN(Cc2ccccc2NS(=O)(=O)C(F)(F)F)C(=O)O1 (stereo not shown) [1-135]
CAT: no
--
COMPOUND: CCC1(C)CN(Cc2ccccc2N(C(=O)OC)S(=O)(=O)C(F)(F)F)C(=O)O1 (racemic) [1-108]
CAT: yes
--
COMPOUND: COCCOC(=O)N(c1ccccc1CN1CC(C)(C2CC2)OC1=O)S(=O)(=O)C(F)(F)F (racemic) [1-119]
CAT: yes
--
COMPOUND: COC(=O)N(c1ccccc1CN1CC(C)OC1=O)S(=O)(=O)C(F)(F)F (racemic) [1-54]
CAT: yes
--
COMPOUND: COC(=O)N(c1ccccc1CN1CC(C)(C(C)C)OC1=O)S(=O)(=O)C(F)(F)F (racemic) [1-114]
CAT: yes
--
COMPOUND: CC(C)COC(=O)N(c1ccccc1CN1CC(C)OC1=S)S(=O)(=O)C(F)(F)F (stereo not shown) [Compound No. 1-22]
CAT: yes
--
COMPOUND: CC(C)COC(=O)N(c1ccccc1CN1CC(CCl)OC1=O)S(=O)(=O)C(F)(F)F (stereo not shown) [1-40]
CAT: yes
--
COMPOUND: COC(=O)N(c1ccccc1CN1CC(C)(C2CCCCC2)OC1=O)S(=O)(=O)C(F)(F)F (stereo not shown) [1-157]
CAT: no

====

System: transplanted paddy rice plant and Bulrush
MEASUREMENT_NOTES: Test Example 5: selectivity between transplanted paddy rice plant and weeds
Type: in vivo
MEASUREMENT_CONTEXT: (highest dosage with no phytotoxicity to paddy rice)/(lowest dosage with effective level 4 on Bulrush); rice 3000-100 g/ha, Bulrush 300-10 g/ha; 21 days
Each entry gets label 0 if its Selective Index stays under 10, and label 1 if its Selective Index is 10 or above.

COMPOUND: CCOC(=O)N(c1ccccc1CN1CC(CC)(CC)OC1=O)S(=O)(=O)C(F)(F)F
ASSAY_SYSTEM: transplanted paddy rice plant and Bulrush
CAT: label 1
//
COMPOUND: CC(C)OC(=O)N(c1ccccc1CN1CC(C)(C)OC1=O)S(=O)(=O)C(F)(F)F
ASSAY_SYSTEM: transplanted paddy rice plant and Bulrush
CAT: label 1
//
COMPOUND: CC1CN(Cc2ccccc2NS(=O)(=O)C(F)(F)F)C(=S)O1 (stereo not shown)
ASSAY_SYSTEM: transplanted paddy rice plant and Bulrush
CAT: label 1
//
COMPOUND: COCCOC(=O)N(c1ccccc1CN1CC(C)(C)OC1=O)S(=O)(=O)C(F)(F)F
ASSAY_SYSTEM: transplanted paddy rice plant and Bulrush
CAT: label 1
//
COMPOUND: COC(=O)N(c1ccccc1CN1CC(C(F)(F)F)OC1=O)S(=O)(=O)C(F)(F)F (stereo not shown)
ASSAY_SYSTEM: transplanted paddy rice plant and Bulrush
CAT: label 0
//
COMPOUND: CCC1(CC)CN(Cc2ccccc2N(C(=O)OCC(C)C)S(=O)(=O)C(F)(F)F)C(=S)O1
ASSAY_SYSTEM: transplanted paddy rice plant and Bulrush
CAT: label 1
//
COMPOUND: CC(C)OC(=O)N(c1ccccc1CN1CC(C)(C2CC2)OC1=O)S(=O)(=O)C(F)(F)F (racemic)
ASSAY_SYSTEM: transplanted paddy rice plant and Bulrush
CAT: label 1
//
COMPOUND: O=C1OC2(CCC2)CN1Cc1ccccc1NS(=O)(=O)C(F)(F)F
ASSAY_SYSTEM: transplanted paddy rice plant and Bulrush
CAT: label 0
//
COMPOUND: CCC1(CC)CN(Cc2ccccc2NS(=O)(=O)C(F)(F)F)C(=O)O1
ASSAY_SYSTEM: transplanted paddy rice plant and Bulrush
CAT: label 0
//
COMPOUND: CC1COC(=O)N1Cc1ccccc1NS(=O)(=O)C(F)(F)F (stereo not shown)
ASSAY_SYSTEM: transplanted paddy rice plant and Bulrush
CAT: label 0
//
COMPOUND: CCC1COC(=O)N1Cc1ccccc1N(C(=O)OCC(C)C)S(=O)(=O)C(F)(F)F (stereo not shown)
ASSAY_SYSTEM: transplanted paddy rice plant and Bulrush
CAT: label 0
//
COMPOUND: CCCOC(=O)N(c1ccccc1CN1CC(C)(CC)OC1=O)S(=O)(=O)C(F)(F)F (stereo not shown)
ASSAY_SYSTEM: transplanted paddy rice plant and Bulrush
CAT: label 1
//
COMPOUND: CC(C)COC(=O)N(c1ccccc1CN1CC(C)OC1=O)S(=O)(=O)C(F)(F)F (stereo not shown)
ASSAY_SYSTEM: transplanted paddy rice plant and Bulrush
CAT: label 1
//
COMPOUND: CC(C)COC(=O)N(c1ccccc1CN1CCOC1=O)S(=O)(=O)C(F)(F)F
ASSAY_SYSTEM: transplanted paddy rice plant and Bulrush
CAT: label 0

====

System: transplanted paddy rice plant and Bulrush
MEASUREMENT_NOTES: Test Example 5: selectivity between transplanted paddy rice plant and weeds
Type: in vivo
MEASUREMENT_CONTEXT: (highest dosage with no phytotoxicity to paddy rice)/(lowest dosage with effective level 4 on Bulrush); rice 3000-100 g/ha, Bulrush 300-10 g/ha; 21 days
# maps each entry to its Selective Index

MOLECULE: CCC1(CC)CN(Cc2ccccc2N(C(=O)OCC(C)C)S(=O)(=O)C(F)(F)F)C(=O)O1
Selective Index: 10
--
MOLECULE: CCC1CN(Cc2ccccc2N(C(=O)CC(C)C)S(=O)(=O)C(F)(F)F)C(=O)O1 (racemic)
Selective Index: 10
--
MOLECULE: CCCCCOC(=O)N(c1ccccc1CN1CC(C)(C)OC1=O)S(=O)(=O)C(F)(F)F
Selective Index: 30

====

# maps each entry to its melting point
EXPERIMENTAL_ENDPOINT: melting point

COMPOUND: CC1(C)COC(=O)N1Cc1ccccc1NS(=O)(=O)C(F)(F)F
OBSERVED_VALUE: 134.9 °C
//
COMPOUND: Cc1cn(Cc2ccccc2N(C(=O)OCC(C)C)S(=O)(=O)C(F)(F)F)c(=O)o1
OBSERVED_VALUE: 60.3 to 68.6 °C
//
COMPOUND: CC1(C)OC(=O)N(Cc2ccccc2NS(=O)(=O)C(F)(F)F)C1O (stereo not shown)
OBSERVED_VALUE: 88 to 92 °C
//
COMPOUND: CCC1COC(=O)N1Cc1ccccc1NS(=O)(=O)C(F)(F)F (stereo not shown)
OBSERVED_VALUE: 81.4 to 83.6 °C
//
COMPOUND: Cc1cn(Cc2ccccc2NS(=O)(=O)C(F)(F)F)c(=O)o1
OBSERVED_VALUE: 120.2 to 121.2 °C
//
COMPOUND: CC(C)COC(=O)N(c1ccccc1CN1C(=O)OCC1(C)C)S(=O)(=O)C(F)(F)F
OBSERVED_VALUE: 65 to 65.8 °C
//
COMPOUND: CC1(C)CN(Cc2ccccc2NS(=O)(=O)C(F)(F)F)C(=O)S1
OBSERVED_VALUE: 115 to 117.5 °C
//
COMPOUND: CCC1COC(=O)N1Cc1ccccc1N(C(=O)OCC(C)C)S(=O)(=O)C(F)(F)F (stereo not shown)
OBSERVED_VALUE: 69.3 to 71.7 °C
//
COMPOUND: CCC1CN(Cc2ccccc2N(C(=O)OCC(C)C)S(=O)(=O)C(F)(F)F)C(=O)O1 (stereo not shown)
OBSERVED_VALUE: 85 to 87 °C
//
COMPOUND: CC1CN(Cc2ccccc2NS(=O)(=O)C(F)(F)F)C(=S)O1 (stereo not shown)
OBSERVED_VALUE: 74 to 76 °C

Ref: patent US20080274892A1
